Target: Gamma-secretase
Experiment: In vitro inhibition of gamma-secretase as amyloid peptide production in SH-SY5Y cells
Recorded IC50 values for a group of molecules are listed next.

[
  {
    "molecule": "COC(=O)C(C)C(c1cc(F)ccc1F)S(=O)(=O)c1ccc(Cl)cc1 (stereo not drawn)",
    "IC50, nM": 253
  },
  {
    "molecule": "CC(C)N(c1cc(F)ccc1F)S(=O)(=O)c1ccc(Cl)cc1",
    "IC50, nM": 170
  },
  {
    "molecule": "C[C@H](CO)N(c1cc(F)ccc1F)S(=O)(=O)c1ccc(Cl)cc1",
    "IC50, nM": 27
  },
  {
    "molecule": "O=S(=O)(Cc1cc(F)ccc1F)c1ccc(Cl)cc1",
    "IC50, nM": 4410
  },
  {
    "molecule": "O=S(=O)(c1ccc(Cl)cc1)C1(c2ccccc2F)CCCCC1",
    "IC50, nM": 55
  },
  {
    "molecule": "O=S(=O)(c1ccc(Cl)cc1)C1(c2ccccc2)CCCCC1",
    "IC50, nM": 461
  },
  {
    "molecule": "CC(CO)C(c1cc(F)ccc1F)S(=O)(=O)c1ccc(Cl)cc1 (stereo not drawn)",
    "IC50, nM": 304
  },
  {
    "molecule": "O=S(=O)(c1ccc(Cl)cc1)C1(c2cc(F)ccc2F)CCCCC1",
    "IC50, nM": 3
  }
]

Origin of the recorded values: ChEMBL document CHEMBL1145262
